tested on: L. major amastigote; experiment: L. major amastigote assay; format: cell-based; conditions: Leishmania major
pEC50: −log10 of the molar value. Counter-ions that a name gives are not always drawn.

# Compound, pEC50
data = [
    ("O=S(=O)(c1ccc(-c2ccc3ccnc(Nc4ccc(OCc5ccccc5)c(Cl)c4)c3c2)cc1)N1CCOCC1", "< 4.82"),
    ("O=S(=O)(c1ccc(-c2ccc3ncnc(Nc4ccc(OCc5ccccc5)c(Cl)c4)c3c2)cc1)N1CCOCC1 [Compound 20e, Hydrochloride]", "< 4.82"),
    ("O=S(=O)(c1ccc(-c2ccc3c(Nc4ccc(OCc5ccccc5)c(Cl)c4)nncc3c2)cc1)N1CCOCC1", "< 4.82"),
]
